Details: in isopropanol, 315.65 K
Result Type: solubility (mole fraction)

Q: Specify solubility (mole fraction) for CCCCCCCCCCCCCCCCCCCCCC(=O)OCCO and stop.
A: 0.0015

====

Conditions: in n-propanol, 302.85 K
Result Type: solubility (mole fraction)

Q: Specify solubility (mole fraction) for CCCCCCCCCCCCCCCCCCCCCC(=O)OCCO and stop.
A: 0.0007

====

Conditions: in 1,1,1-trichloroethane, 287.65 K
Result Type: solubility (mole fraction)
Give a plain numeric answer without units written out.

Q: Specify solubility (mole fraction) for CCCCCCCCCCCCCCCCCC(=O)OCCO and stop.
A: 0.0097

====

Settings: in n-butanol, 299.75 K
Result Type: solubility (mole fraction)
Give a plain numeric answer without units written out.

Q: Specify solubility (mole fraction) for CCCCCCCCCCCCCCCCCCCCCC(=O)OCCO and stop.
A: 0.0006
